Recorded values, source PubChem BioAssay (NCI).

protocol details: NCI Yeast Anticancer Drug Screen. Data for the rad50 strain (AID 155);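 further: 0% = growth of vehicle-only cultures of the same strain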
condition context: S. cerevisiae rad50 strain growth inhibition; at 50.0 µM; stronger effect = higher value
The panel holds about 79,000 compounds, 15% with a hit somewhere; the sample as a whole holds those more often. Calls of active or inactive are those of the source. No stated cut-off is given here; in the data, active means growth inhibition above about 70%; inactive means the rest.
Measured growth inhibition of individual entries
measurement type: growth inhibition

O=NN(CCCl)C(=O)Oc1ccc(OC(=O)N(CCCl)N=O)cc1
59.6% (inactive)
CC(=O)OC1CCC(C(C)(C)C)C(C)C1 (configuration not stated)
11.4% (inactive)
Cc1ccc2[nH]c3c(c2c1)CCC/C3=N/N=C(N)N
63% (inactive)
COC1=CC(=O)C(O)=C/C1=C\C=C\c1ccccc1
95% (active)
C=COCCN1CCN(CCCN2c3ccccc3Sc3ccc(C(F)(F)F)cc32)CC1
99.5% (active)
S=C1C(=Nc2ccccc2)N(c2ccccc2)/C(=N\c2cccc[n+]2Cc2ccccc2)N1c1ccccc1
96.6% (active)
C/C(CCn1[nH]c(=O)ccc1=O)=N\Nc1ccc([N+](=O)[O-])cc1[N+](=O)[O-]
67.3% (inactive)
CN(C)CC1CCc2ccc3ccccc3c2C1=O (configuration not stated)
25.9% (inactive)
CN(C)CCCCCNc1c2ccccc2nc2cccc([N+](=O)[O-])c12
90% (active)
CCCCCCCC/C(C=O)=C\c1ccccc1
77.8% (active)
Cn1c(=S)c2[nH]c(SCCN3CCOCC3)nc2n(C)c1=O
98.5% (active)
O=C(Nc1cccc(C(F)(F)F)c1)C(Cl)=C(Cl)Cl
98.5% (active)
O=C1NCCCNCCCNCCCNC(=O)c2cccc1n2
-41.7% (inactive)
OC(C1CCC=NN1C(O)(C(F)(F)F)C(F)(F)F)(C(F)(F)F)C(F)(F)F (configuration not stated)
89.7% (active)
O=C1c2ccccc2C(=O)c2ncccc21
96.3% (active)
C1CCC2[N-]CC3CCCCC3[N-]CC3CCCCC3[N-]CC3CCCCC3[N-]CC2C1.[Cl][Fe]([Cl])([Cl])[Cl].[Fe+6] (configuration not stated)
96.3% (active)
CC(=O)Oc1c(C2CCCCC2)cc([N+](=O)[O-])cc1[N+](=O)[O-]
99.5% (active)
CCCCCCCN(CCCCCCC)CC(=O)NC(=O)c1ccccc1
99.4% (active)
C1CCC2CC3(CCNCC3)CCC2C1 (configuration not stated)
75.2% (active)
CN(C)c1ccccc1CCCCCCc1ccccc1N(C)C
84% (active)
COc1ccc2c(c1)Cc1cc(NC(=O)N(CCCl)N=O)ccc1-2
90.2% (active)
O=C1C=C(c2ccccc2)OC1(Nc1ccccc1)c1ccccc1 (configuration not stated)
71.7% (active)
CC[C@@H]1O[C@@H]([C@@H]2CC[C@](O)([C@]3(C)CC[C@@H]([C@@H](C)[C@@]4(O)CC[C@H](C)[C@@H](C[C@@]5(O)O[C@@H]([C@@H](C)[C@H](O)C[C@H]6CC[C@H](C)[C@@H]([C@@H](C)C(=O)O)O6)CC[C@@H]5C)O4)O3)O2)CC[C@@]1(C)O
88.4% (active)
CC(=O)O[C@H]1CC[C@@]2(C)C(CC[C@]3(C)C2CC=C2[C@@H]4CC(C)(C)CC[C@]4(C(=O)NCCN(C)C)CCC23C)C1(C)C (some centres not stated)
77% (active)
O=c1[nH]c2c([N+](=O)[O-])cc(Cl)cc2nc1/C=C(\O)c1cccc2ccccc12
77% (active)
CCOc1ccccc1/C=C1\NC(=O)N(/C=C2\C(=O)Oc3ccccc3C2=O)C1=O
93.7% (active)
C[C@]12C[C@@H](c3ccccc3)Nc3ccccc3N1C(c1ccccc1)=NO2
61% (inactive)
NC(=O)NOC(=O)c1ccccc1
85.3% (active)
Oc1ccc(O)c2c(O)c3ccccc3c(O)c12
76.7% (active)
O=C(NNc1ccccc1)c1ccccc1Cl
97.5% (active)
CC(SC1=CC(=O)c2c(O)ccc(O)c2C1=O)C(=O)O (configuration not stated)
22.6% (inactive)
COc1cc2c(cc1OC(C)=O)C(=O)C(Br)(Br)CCC2
62.5% (inactive)
Oc1c(Cl)cc(Cl)cc1/C=C1\C=Nc2ccccc21
2.75% (inactive)
CC(C)OC(=O)C1C=CCc2c(O)ccc(O)c21 (configuration not stated)
21.2% (inactive)
O=c1oc(-c2ccc(Cl)cc2[N+](=O)[O-])nc2ccccc12
77.2% (active)
COC(=O)CCC(=O)N1C/C(=C\c2ccccc2)C(=O)/C(=C/c2ccccc2)C1
88.6% (active)
C(=N\NC1=NCCN1)/c1ccc(-c2cn3cc(/C=N/NC4=NCCN4)ccc3n2)cc1
99.1% (active)
COC(=O)c1nc(N)nc(C(=O)OC)c1C(=O)c1ccccc1
-32.9% (inactive)
Cc1c2cnccc2c(C)c2c1c1ccccc1n2Cc1ccccc1
89% (active)
CCOC(=O)C1SC(=Nc2cccc(Cl)c2C)N=C1C (configuration not stated)
85.3% (active)
NC(=O)C(=O)N/N=C/c1ccc([N+](=O)[O-])o1
32.4% (inactive)
CN(C)[C@@H]1C(=O)C(C(=O)NCNc2nc3n[nH]nc3c(=O)[nH]2)=C(O)[C@@]2(O)C(=O)C3=C(O)c4c(O)cccc4[C@@](C)(O)[C@H]3C[C@@H]12
-5.65% (inactive)

* * *

protocol details: NCI Yeast Anticancer Drug Screen. Data for the sgs1 mgt1 strain (AID 161);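 further: 0% = growth of cultures given vehicle only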
condition context: S. cerevisiae sgs1 mgt1 strain, at 50.0 µM
The panel holds about 79,000 compounds, 15% with a hit somewhere; the sample as a whole holds those more often. The source made the active and inactive calls. No stated cut-off is given here; in the data, active means growth inhibition above about 70%; inactive means the rest.
Possible outcomes: 1.0 for active, 0.0 for inactive

O=C(O)CCC12CCCCC1=NC1(CCCCC1)NC2=O (configuration not stated)
1.0
Nc1ccc(C(=O)/C=C/c2ccccn2)cc1
0.0
CCOC(=O)c1nc(SC)sc1NC(=O)c1ccccc1Cl
1.0
Cc1cc(N=Nc2ccccc2C)c(N)cc1N
1.0
Oc1ccc(O)c(C2CCCCC2)c1
1.0
CCOC1(OCC)Cc2nc3ccccc3cc21
1.0
CC(=O)OCC(C(N)=O)(c1ccccc1)c1ccccc1
0.0
CCOC(=O)/C(C#N)=C\c1ccc(N(CCC(=O)O)CCC(=O)O)c(I)c1
0.0
COc1cc(CC#N)c(NC(C)=O)cc1OC
0.0
CCCc1cc(=O)oc2c3c(c4c(c12)OC(C)(C)CC4)O[C@H](C)[C@H](C)C3=O
1.0
CC(N)C1C(C)CC2C3CC=C4CC(O)CCC4(C)C3CCC21C (configuration not stated)
1.0
CC(C)(C)SC(=O)C1(C)OC1c1ccc([N+](=O)[O-])cc1 (configuration not stated)
0.0

* * *

protocol details: NCI Yeast Anticancer Drug Screen. Data for the bub3 strain (AID 167)
condition context: S. cerevisiae bub3 mutant strain, at 50.0 µM (retest, dose inferred, filed as 5.0), stronger effect = higher value
This is part of a sample that, as a whole, favours compounds with a hit. Of some 79,000 tested, about 15% had one in any assay.
Is growth inhibition at least 90%? Then YES. If not, NO.

O=S(=O)(N=S(c1ccc(Cl)cc1)c1ccc(Cl)cc1)c1ccccc1
NO
CCCn1cc2c(SC)nc(SC)nc2n1
YES
CC1=C(C(=O)OC(C)C)C(c2ccccc2[N+](=O)[O-])C(C(=O)OC(CO[N+](=O)[O-])CO[N+](=O)[O-])=C(C)N1 (stereo unspecified)
NO
C=C1CC[C@H]2C(C)=CC[C@@H]3[C@H](OC(=O)[C@H]3CN3CCN(c4ccc(C)c([N+](=O)[O-])c4)CC3)[C@@H]12
NO
Cc1cc(C(=O)O)c(C)c2c1sc1ccccc12
NO
O=[N+]([O-])c1ccc(Sc2ccc([N+](=O)[O-])o2)o1
YES
CCN(CC)CCNc1ccc(C)c2sc3cccc(O)c3c(=O)c12
YES
C/C(=N/NC(=S)Nc1cccc(Cl)c1)c1ccccn1
YES
CCOC(=O)/C(=C\c1cccc(OC)c1)C(C)=O
YES
CCCCCC(C)[P+](c1ccccc1)(c1ccccc1)c1ccccc1 (stereo unspecified)
YES
O=C(N/N=C/c1ccccn1)c1ccccc1[O-].O=C(N/N=C/c1ccccn1)c1ccccc1[O-].[Co+2]
NO
COc1cc(C2C(C(=O)Nc3ccc(Cl)c(Cl)c3)=C(C)NC(C)=C2C(=O)Nc2ccc(Cl)c(Cl)c2)ccc1O
NO
NS(=O)(=O)c1ccc(Nc2c3ccccc3nc3c(C(=O)NC(CO)(CO)CO)cccc23)cc1
NO
CCCCOC(=O)C(=O)/C(=C/N1C(=O)/C(=C/C(C)=C/c2ccccc2)SC1=S)C(=O)C=C(C)C
NO
Cc1ccc(C(=O)C(CCC#N)(CCC#N)CCC#N)cc1
NO
C/C(=N/O)C1CC(CCC2([N+](=O)[O-])CCC(C)(O)C(/C(C)=N/O)C2)([N+](=O)[O-])CCC1(C)O (stereo unspecified)
NO
COc1ccc2c(c1)CCCN2CCCCCCCN1CCCCC1
NO
O=C(CCCN1CCC(C(O)c2ccc(F)cc2)CC1)c1ccc(F)cc1 (stereo unspecified)
YES
CCCC#CCCOC(=O)c1cc([N+](=O)[O-])cc([N+](=O)[O-])c1
YES
CCC(=O)/C(=C\c1ccccc1)C(=O)C(C)CN(C)C (stereo unspecified)
NO
O=C1C=CC(=O)C2C1Cc1ccccc1C2c1ccccc1 (stereo unspecified)
YES
COC(=O)/C=C1/OC(c2ccccc2)=CC1=O
NO
O=C1c2ccccc2C(=O)c2sc(Nc3ccc([N+](=O)[O-])cc3)nc21
YES
O=C(/C=C\c1ccc(Cl)c(Cl)c1)c1cccs1
NO
COc1ccc(CCNC(=S)/N=C\C(C(=O)c2ccccc2)=C(\O)c2ccccc2)cc1OC
YES
COc1ccc(Oc2ccc(C(=O)C(CN(C)C)CN(C)C)cc2)cc1
YES
Cc1ccc(C(=O)OCCN2CCOCC2)c([N+](=O)[O-])c1OCc1ccccc1
NO
CCCCCCCC(=O)O[C@H]1[C@H]2[C@@H](CC1(C)C)C(=O)[C@]13O[C@H]1C(=O)[C@]1(CO1)[C@]23C
YES
CCOc1ccc(/C=N\NC(=O)c2ccco2)cc1OCC
NO
C1=C(c2ccccc2)SC=C(c2ccccc2)S1
NO
O=S(=O)(O)CC[S][Sn]([S]CCS(=O)(=O)O)([c]1ccccc1)[c]1ccccc1 (tested in a mixture with another compound)
YES
N#CC1Sc2ccccc2N1C(=O)c1ccccc1 (stereo unspecified)
NO
CC1(C)OC(=O)C(=NNc2ccccc2[N+](=O)[O-])C(=O)O1
NO
c1ccc2c3ccn4ccc5c6ccccc6[nH]c5c4c-3nc2c1
YES
CC(C)C(O)(C(=O)OCN1C(=O)C2C3C=CC(C2C1=O)C1C2C(=O)N(COC(=O)C(O)(C(C)C)C(C)O)C(=O)C2C31)C(C)O (stereo unspecified)
NO
O=C(COC(=O)C(c1ccccc1)c1ccccc1)c1ccc(Br)cc1
NO
CCCn1c2ccccc2c2ccc3c(c21)C(=O)C=CC3=O
NO
CCCCCCCCCCCCCCNC(=O)CCC(NC(=O)c1ccc(N(C)Cc2cnc3nc(N)nc(N)c3n2)cc1)C(=O)NCCCCCCCCCCCCCC (stereo unspecified)
YES
Cc1cc(=O)[nH]c2cc3oc4ccccc4c3cc12
NO
Cc1cccc2nc3nc(Cl)c(Cl)nc3n12
NO
